Just for reference, PubChem BioAssay (NCATS) is where these values come from.

- ASSAY COMMENT: Drug repurposing screens with cells derived from glioblastoma tumor samples (AID 1345199); also: % is scaled to controls: 0 for no effect and ±100 for the full control effect
- REPORTED CONDITIONS: GBM patient neurospheres viability, ATP luminescence, 48 h; at 45.9 µM (top of the series); tumour line B
Results filed as inconclusive are left out. Where a SMILES comes first, the peptide text is derived from it. Bridges are numbered along the chain shown (N, C = ends). [ ]: non-standard residue; d: D form. The star is where a group is joined. Dab(CH2SO3H) = N[C@@H](CCNCS(=O)(=O)O)C(=O)O; X3 = CC[C@@H](C)CCCCC(=O)*; Dab = NCC[C@H](N)C(=O)O
QUANTITY NAME: activity, negative = cell killing (%)
The reply should contain only the number, in %.

Worked examples, 8 molecules total:
>  <MOLECULE>
CNc1cc(OC)c(C(=O)N[C@H]2CCN(Cc3ccccc3)[C@H]2C)cc1Cl

>  <READING UNIT>
%

>  <activity, negative = cell killing>
-17.5

$$$$
>  <MOLECULE>
CN1C(=O)CN2CCc3ccccc3C2c2cc(Cl)ccc21 (stereo not given)

>  <READING UNIT>
%

>  <activity, negative = cell killing>
-19.8

$$$$
>  <MOLECULE>
CC(NNC(=O)c1ccccc1)c1ccccc1 (stereo not given)

>  <READING UNIT>
%

>  <activity, negative = cell killing>
-15.6

$$$$
>  <MOLECULE>
CC1(C)O[C@@H]2C[C@H]3[C@@H]4CCC5=CC(=O)C=C[C@]5(C)[C@H]4[C@@H](O)C[C@]3(C)[C@]2(C(=O)CO)O1

>  <READING UNIT>
%

>  <activity, negative = cell killing>
-5.55

$$$$
>  <MOLECULE>
CCCCC(=O)N(Cc1ccc(-c2ccccc2-c2nn[nH]n2)cc1)[C@@H](C(=O)O)C(C)C

>  <READING UNIT>
%

>  <activity, negative = cell killing>
2.85

$$$$
>  <MOLECULE>
CCCCC(CC)COC(=O)CC(C(=O)OCC(CC)CCCC)S(=O)(=O)O (stereo not given)

>  <READING UNIT>
%

>  <activity, negative = cell killing>
1.3

$$$$
>  <MOLECULE>
C[C@@H]1[C@H](O)[C@@H](C)/C=C/C=C\C=C\C=C\C=C\C=C\C=C\[C@H](O[C@@H]2O[C@H](C)[C@@H](O)[C@H](N)[C@@H]2O)C[C@@H]2O[C@](O)(C[C@@H](O)C[C@@H](O)[C@H](O)CC[C@@H](O)C[C@@H](O)CC(=O)O[C@H]1C)C[C@H](O)[C@H]2C(=O)O (stereo in doubt)

>  <READING UNIT>
%

>  <activity, negative = cell killing>
-6.2

$$$$
>  <MOLECULE>
CCCCCCCC/C=C\CCCCCCCC(=O)O

>  <READING UNIT>
%

>  <activity, negative = cell killing>
3.38

$$$$

State the recorded activity, negative = cell killing for this entry: CC[C@@H](C)CCCCC(=O)N[C@@H](CCNCS(=O)(=O)O)C(=O)N[C@H](C(=O)N[C@@H](CCNCS(=O)(=O)O)C(=O)N[C@H]1CCNC(=O)[C@H]([C@@H](C)O)NC(=O)[C@H](CCNCS(=O)(=O)O)NC(=O)[C@H](CCNCS(=O)(=O)O)NC(=O)[C@H](CC(C)C)NC(=O)[C@@H](CC(C)C)NC(=O)[C@H](CCNCS(=O)(=O)O)NC1=O)[C@@H](C)O (X3-[Dab(CH2SO3H)]T[Dab(CH2SO3H)][Dab][Dab(CH2SO3H)][dL]L[Dab(CH2SO3H)][Dab(CH2SO3H)]T; lactam 4-C)
-7.01

Another molecule: CCC(=O)NCCC1CCc2ccc3c(c21)CCO3 (stereo not given)
-16.2

Entry COc1ccc(C[C@@H](C)NC[C@H](O)c2ccc(O)c(NC=O)c2)cc1 please
-17.2

// repeat for Cc1ccccc1OCC(O)CNCCOc1ccc(C(N)=O)cc1 (stereo not given) and report
6.35

Now the same for CC(=O)Oc1c(C)cc(OCC(O)CNC(C)C)c(C)c1C (stereo not given)
-11.9

Item: OC[C@H]1O[C@@H](OCCc2ccc(O)cc2)[C@H](O)[C@@H](O)[C@@H]1O
-17.4

Another molecule to check: CC1(C)S[C@@H]2[C@H](NC(=O)C(C(=O)O)c3ccsc3)C(=O)N2[C@H]1C(=O)O (stereo not given in full)
5.71
